# Method summary: TEM / cryo-TEM imaging of self-assembled nanostructures (dimensions)
# Format: physicochemical
# Settings: self-assembled nanotubes in water, 200 μM, n>40
Parameter: Diameters measured by conventional TEM (nm)
Write down the numeric answer in nm and omit the unit.

Query (molecule): `CC[C@]1(OC(=O)OCCSSC[C@@H](NC(C)=O)C(=O)N[C@@H](CCCCNC(=O)[C@@H](CSSCCOC(=O)O[C@]2(CC)C(=O)OCc3c2cc2n(c3=O)Cc3cc4ccccc4nc3-2)NC(C)=O)C(=O)N[C@@H](CCCCN)C(=O)N[C@@H](CCC(=O)O)C(N)=O)C(=O)OCc2c1cc1n(c2=O)Cc2cc3ccccc3nc2-1` ; field requested: Diameters measured by conventional TEM
8.3

Param item: `CC[C@]1(OC(=O)OCCSSC[C@@H](NC(C)=O)C(=O)N[C@@H](CCCCNC(=O)[C@@H](CSSCCOC(=O)O[C@]2(CC)C(=O)OCc3c2cc2n(c3=O)Cc3cc4ccccc4nc3-2)NC(C)=O)C(=O)N[C@H](CCCCNC(=O)CN2CCN(CC(=O)O)CCN(CC(=O)O)CCN(CC(=O)O)CC2)C(N)=O)C(=O)OCc2c1cc1n(c2=O)Cc2cc3ccccc3nc2-1`
8.4

###

# System: U87 MG human brain cancer cells
# Method summary: cells
# Settings: U-87 MG, 48 h
Parameter: IC50 (µM)
Write down the numeric answer in µM and omit the unit.

API: value(readout= IC50, system= U87 MG human brain cancer cells, query= CCc1c2c(nc3ccc(OC(=O)N4CCC(N5CCCCC5)CC4)cc13)-c1cc3c(c(=O)n1C2)COC(=O)[C@]3(O)CC [irinotecan, reference compound] )
6.5

Param item: CC[C@@]1(O)C(=O)OCc2c1cc1n(c2=O)Cc2cc3ccccc3nc2-1 [CPT, Camptothecin, reference compound]
0.062

###

# Method summary: Tolerability of free CPT in mice
# Assay type: in vivo
# Settings: mouse, in vivo, intraperitoneal
# Method: Due to its poor water solubility, free CPT is often given in a formulation containing a mixture of DMSO/ethanol/PEG-400/water at a volumetric ratio of 1:1:2:1 (24). […] We eventually identified an intraperitoneal injection of 4.5 mg/kg CPT to be a tolerable dosage for animal studies. In contrast, the MTD of TT 1 SPs in healthy athymic nude mice, identified in a dose escalation study through systemic administration, is within the range of 24-30 mg/kg (CPT equivalent) (FIG. 3D and FIG. 13). […]
Parameter: MTD

Query (compound): CC[C@@]1(O)C(=O)OCc2c1cc1n(c2=O)Cc2cc3ccccc3nc2-1 [CPT, Camptothecin, reference compound] ; field requested: MTD
~5 mg/kg

###

# Method summary: Biodistribution study in U87 MG tumor-bearing mice
# Assay type: in vivo, nude mice
# Settings: nude, mouse, in vivo, 4.5 mg/kg, 4.5 mg/kg i.v., 1 hour after injection; read-out: drug concentration in plasma
# Description: Mice bearing subcutaneous tumors were established by injecting 100 μL of a U87 MG suspension in serum-free medium (2×10^6 cells) into the right flank of the mice. […] Three mice from each group were euthanized at pre-determined time points (1, 2, 4, 8, 12, and 24 h). […] Peaks with retention times of 5.4 min (free CPT) and 6.9 min (TT 1) were monitored.
Parameter: concentration at 1 h
Answer shape: numeric part, then the unit.

Query (compound): CC[C@@]1(O)C(=O)OCc2c1cc1n(c2=O)Cc2cc3ccccc3nc2-1 [CPT, Camptothecin, reference compound] ; field requested: concentration at 1 h
37 ng/g

Data provenance is patent US20220211858A1.
